- SUBJECT OF TEST: Beta Secretase enzyme (BACE) (Homo sapiens)
- ASSAY NAME: In vitro enzymatic BACE FRET (fluorescence resonance energy transfer) assay
- Format: biochemical
- EXPERIMENTAL CONTEXT: average IC50, enzyme assay; read-out: BACE 1 FRET assay
PROPERTY NAME: IC50 (nM)

Reference set (6 entries):
* CC(C)(C)COc1ccc2c(c1)[C@@]1(COC(N)=N1)c1cc(C3=CCOCC3)cnc1O2 [Example 503] | 4.7
* COc1cc(-c2cc3c(cn2)Oc2ccc(-c4cccnc4F)cc2[C@@]32COC(N)=N2)ccc1F [Example 537] | 7.6
* CC1(C)CC(=O)N(c2cc(F)c3c(c2)[C@]2(COC(N)=N2)c2cc(-c4cccnc4F)ccc2O3)C1 [Example 797] | 0.6
* CC1(COc2cc(F)c3c(c2)[C@]2(COC(N)=N2)c2cc(-c4cccc(C#N)c4)ccc2O3)COC1 [Example 562] | 2
* CC1(C)CC(c2cc3c(cn2)Oc2ccc(-c4ccc(F)nc4)cc2[C@@]32COC(N)=N2)=CCO1 [Example 370] | 3.6
* COC1CN(c2cc(F)c3c(c2)[C@]2(COC(N)=N2)c2cc(-c4cccnc4F)ccc2O3)C1 [Example 281] | 2

(A) CC1(C)CC(c2cnc3c(c2)[C@@]2(COC(N)=N2)c2c(ccc(-c4cccnc4F)c2F)O3)=CCO1 [Example 351]
(B) Cc1ccnc(Oc2ccc3c(c2)[C@@]2(COC(N)=N2)c2cc(C4=CCOCC4)cc(F)c2O3)c1 [Example 1065]
(C) CC1(C#Cc2cnc3c(c2)C2(CSC(N)=N2)c2cc(-c4cccnc4F)ccc2O3)COC1 (stereo not drawn) [Example 98]
Q: List the 3 entries from lowest IC50 to highest IC50 value. Please reply with the labels ordered as requested. Many thanks.
Result: C, B, A

(1) Cc1ncccc1-c1ccc2c(c1)[C@@]1(COC(N)=N1)c1cc(C3=CCOCC3)ncc1O2 [Example 247]
(2) COc1cc(F)c2c(c1)[C@]1(COC(N)=N1)c1cc(-c3cncc(C#CC(C)(C)O)c3)ccc1O2 [Example 822]
Q: Hi! Which is lower in terms of IC50, the first one 1 or the second one 2 ? Answer by quoting the chosen item's label.
Result: 1
(1: 44.9 nM, 2: 93.3 nM)

(a) NC1=N[C@@]2(CO1)c1cc(-c3cccnc3F)ccc1Oc1c2cc(Cl)nc1F [Example 488]
(b) NC1=N[C@]2(CS1)c1cc(-c3cncnc3)c(F)cc1Oc1c(F)cc(C3=CCCOC3)cc12 [Example 874]
Q: Among a and b , which shows a numerically higher IC50 result? Respond using the label that marks the chosen record.
Result: b
(b: 32.5 nM, a: 6.6 nM)

(P) NC1=N[C@@]2(CO1)c1cc(-c3cccnc3F)ccc1Oc1cnc(N3CCCC(F)(F)C3)cc12 [Example 430]
(Q) CC1(C#Cc2cnc3c(c2)[C@]2(COC(N)=N2)c2cc(-c4cnccn4)ccc2O3)COC1 [Example 168]
Q: I need your help: which of the pair P , Q has higher IC50? Please indicate the selected item by its label.
Result: Q
(Q: 3.3 nM, P: 0.6 nM)

----------
- SUBJECT OF TEST: Beta Secretase enzyme (BACE) (Homo sapiens, UniProt P56817)
- Sequence (P56817 46-501, species assumed): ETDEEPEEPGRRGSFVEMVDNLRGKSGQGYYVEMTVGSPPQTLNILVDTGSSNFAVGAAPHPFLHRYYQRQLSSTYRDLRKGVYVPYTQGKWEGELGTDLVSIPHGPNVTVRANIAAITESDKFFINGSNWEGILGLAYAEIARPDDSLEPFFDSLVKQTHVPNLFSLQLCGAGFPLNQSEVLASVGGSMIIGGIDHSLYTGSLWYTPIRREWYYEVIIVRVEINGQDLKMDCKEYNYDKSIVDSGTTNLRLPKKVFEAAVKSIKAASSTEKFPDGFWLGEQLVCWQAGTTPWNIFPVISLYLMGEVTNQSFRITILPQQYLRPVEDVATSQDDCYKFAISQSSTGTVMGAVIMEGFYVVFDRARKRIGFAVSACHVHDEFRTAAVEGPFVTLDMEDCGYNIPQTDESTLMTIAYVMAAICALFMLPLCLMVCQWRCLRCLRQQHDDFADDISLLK
- ASSAY NAME: In vitro enzymatic BACE FRET (fluorescence resonance energy transfer) assay
- Format: biochemical
- EXPERIMENTAL CONTEXT: average IC50, enzyme assay; read-out: BACE 1 FRET assay
pIC50: −log10 of the molar value.
PROPERTY NAME: pIC50

# example entries with known answers
- Cc1cc(-c2cc3c(c(F)n2)Oc2ccc(-c4cccnc4F)cc2[C@]32CSC(N)=N2)ccn1 (racemic): 9.40
- N#Cc1cccc(-c2ccc3c(c2)[C@@]2(CSC(N)=N2)c2cc(C4CCOCC4)cnc2O3)c1F: 7.84
- NC1=N[C@@]2(CO1)c1cc(OCCCc3ccccc3)ccc1Oc1ncc(-c3cccnc3)cc12: 7.65
- NC1=N[C@]2(CO1)c1cc(-c3cccnc3F)ccc1Oc1nc(F)c(I)cc12: 4.40
- CC1(C)C=C(c2cc3c(cn2)Oc2ccc(-c4cncnc4)cc2[C@@]32COC(N)=N2)CCO1: 8.80

(I) COc1ncc(F)cc1-c1ccc2c(c1)[C@@]1(COC(N)=N1)c1cc(/C=C/C(C)(C)C)ncc1O2
(II) Cc1ccc(-c2cc(F)c3c(c2)[C@]2(COC(N)=N2)c2cc(-c4cncc(F)c4)ccc2O3)nn1
Q: For the pair I and II , which entry has the numerically smaller recorded pIC50? // return label of chosen record
Result: I
(I: 8.28, II: 8.70)

The measured values listed here are drawn from patent US8883782B2.
